Provide the recorded Post-emergence effect against MATIN in % for the entries that follow.
- Tested on: MATIN
- Test protocol: Post-emergence herbicidal effect, greenhouse pot test
- Format: in vivo, Tripleurospermum inodorum
- Conditions used: 320 g/ha
Numbers only, in %.

Consider the following illustrative entries.
{"columns": ["Compound", "Post-emergence effect against MATIN in % / %"],
 "data": [
  ["COC(=O)C(OC)Oc1nn(-c2cc(F)ccc2F)c(-c2cncc(F)c2)c1C1CC1 (stereo not shown)", 80],
  ["COC(=O)CCOC(=O)C(OC)Oc1nn(-c2ccccc2F)c(-c2ccc(F)nc2)c1Br (single isomer, unassigned) [Example I-13]", 80],
  ["COC(=O)CCOC(=O)C(OC)Oc1nn(-c2ncccc2F)c(-c2cncc(F)c2)c1C1CC1 (stereo not shown) [Example I-82]", 90],
  ["COC(=O)CCOC(=O)C(OC)Oc1nn(-c2ccccc2F)c(-c2ccc(F)nc2)c1Br (single isomer, unassigned) [Example I-20]", 90],
  ["COC(=O)C(OC)Oc1nn(-c2cccc(C)c2F)c(-c2ccc(F)nc2)c1Br (stereo not shown)", 90]
]}

Here are 2 compounds. What values of Post-emergence effect against MATIN in % were reported for them?
1. COC(=O)C(C)COC(=O)C(OC)Oc1nn(-c2ccccc2F)c(-c2ccc(F)nc2)c1Br (racemic)
2. COC(=O)C(OC)Oc1nn(-c2ncccc2F)c(-c2cncc(F)c2)c1C1CC1 (stereo not shown) [Example I-86]

90
90

---

Provide the recorded Post-emergence effect against DIGSA for the entries that follow.
- Test system: DIGSA
- Test protocol: Post-emergence herbicidal effect, greenhouse pot test
- Assay type: in vivo, Digitaria sanguinalis
- Conditions used: 320 g/ha, visual rating about 3 weeks after treatment
Give bare numbers, in %.

Here are 2 compounds. What values of Post-emergence effect against DIGSA were reported for them?
1. CCOC(Oc1nn(-c2ccccc2F)c(-c2ccc(F)nc2)c1Br)C(=O)OCCC(=O)OC (single isomer, unassigned) [Example I-64]
2. COC(=O)C(OC)Oc1nn(-c2cccc(Cl)c2F)c(-c2cncc(F)c2)c1Br (stereo not drawn) [Example I-17]

1: 80; 2: 90

Here are 6 compounds. What values of Post-emergence effect against DIGSA were reported for them?
1. COC(=O)CCOC(=O)C(OC)Oc1nn(-c2ncccc2F)c(-c2ccc(F)nc2)c1C1CC1 (single isomer, unassigned) [Example I-81]
2. COC(=O)C(OC)Oc1nn(-c2cccc(C)c2F)c(-c2ccc(F)nc2)c1Br (stereo not drawn) [Example I-114]
3. CCOC(=O)C(OC)Oc1nn(-c2ccccc2F)c(-c2ccc(F)nc2)c1Br (stereo not drawn) [Example I-23]
4. COC(=O)C(OC)Oc1nn(-c2ncccc2F)c(-c2cncc(F)c2)c1C1CC1 (stereo not drawn) [Example I-87]
5. COC(=O)CCOC(=O)C(OC)Oc1nn(-c2ncccc2F)c(-c2ccc(F)nc2)c1C1CC1 (single isomer, unassigned) [Example I-88]
6. CCOC(Oc1nn(-c2ccccc2F)c(-c2ccc(F)nc2)c1Cl)C(=O)OCC(C)C(=O)OC (racemic) [Example I-54]

80
80
90
90
80
90

Data request, read-out Post-emergence effect against DIGSA, for COC(Oc1nn(-c2ncccc2F)c(-c2cncc(F)c2)c1C1CC1)C(=O)O (stereo not drawn) [Example I-85]
90
